growth values, listed per item
- Test system: SF-295 CNS
- experimental protocol: NCI-60 one-dose screen, 48 h (100 = growth as untreated, 0 = no growth, -100 = all killed)
- cond: 10 µM
Compounds without any hit were thinned out: in the full panel of roughly 83,000, 20% have a hit.

{"compound": "Cc1cc(OCCO)cc(C)c1Cl", "growth (%)": 130}
{"compound": "Cc1ccc(C(=O)N/N=C/c2ccc3c(c2)OCO3)cc1", "growth (%)": 115}
{"compound": "CCOC(=O)Nc1cc2c(c(N)n1)N=C(c1ccccc1)CO2", "growth (%)": 17}
{"compound": "Brc1cnc2ccccc2c1", "growth (%)": 101}
{"compound": "CCCCCCCCCCCCCC(=O)Oc1ccc[nH]c1=O", "growth (%)": 97.1}
{"compound": "CCOC(=O)/C(C#N)=C/c1cccc(C)c1", "growth (%)": 97.9}
{"compound": "CC1CC(O)CC(C)(C)C1 (stereo not drawn)", "growth (%)": 98.7}
{"compound": "CC(=O)OCC(=O)[C@@]1(O)CC[C@H]2[C@@H]3CC[C@@H]4C[C@H](O)CC[C@]4(C)[C@H]3C(=O)C[C@@]21C", "growth (%)": 104}
{"compound": "CC(C)NC(=O)OCc1c(COC(=O)NC(C)C)c(-c2ccc(Cl)c(Cl)c2)n2c1SCC2", "growth (%)": 27.3}
{"compound": "CC(=O)OCC1CCCO1 (stereo not drawn)", "growth (%)": 101}
{"compound": "Cc1cc(C)cc(NCCC#N)c1", "growth (%)": 103}
{"compound": "CSC(=N\\N=C\\c1ccc(N(C)C)cc1)/N=C/N(C)C", "growth (%)": 84.6}
{"compound": "CC(=O)Nc1c(C)cc(C)cc1C", "growth (%)": 94.3}
